# measurement.target: Ba/F3 EGFR L858R/C797S mutants (Homo sapiens, UniProt P00533, C797S/L858R, cells depend on it)
# Sequence (P00533 whole entry C797S/L858R): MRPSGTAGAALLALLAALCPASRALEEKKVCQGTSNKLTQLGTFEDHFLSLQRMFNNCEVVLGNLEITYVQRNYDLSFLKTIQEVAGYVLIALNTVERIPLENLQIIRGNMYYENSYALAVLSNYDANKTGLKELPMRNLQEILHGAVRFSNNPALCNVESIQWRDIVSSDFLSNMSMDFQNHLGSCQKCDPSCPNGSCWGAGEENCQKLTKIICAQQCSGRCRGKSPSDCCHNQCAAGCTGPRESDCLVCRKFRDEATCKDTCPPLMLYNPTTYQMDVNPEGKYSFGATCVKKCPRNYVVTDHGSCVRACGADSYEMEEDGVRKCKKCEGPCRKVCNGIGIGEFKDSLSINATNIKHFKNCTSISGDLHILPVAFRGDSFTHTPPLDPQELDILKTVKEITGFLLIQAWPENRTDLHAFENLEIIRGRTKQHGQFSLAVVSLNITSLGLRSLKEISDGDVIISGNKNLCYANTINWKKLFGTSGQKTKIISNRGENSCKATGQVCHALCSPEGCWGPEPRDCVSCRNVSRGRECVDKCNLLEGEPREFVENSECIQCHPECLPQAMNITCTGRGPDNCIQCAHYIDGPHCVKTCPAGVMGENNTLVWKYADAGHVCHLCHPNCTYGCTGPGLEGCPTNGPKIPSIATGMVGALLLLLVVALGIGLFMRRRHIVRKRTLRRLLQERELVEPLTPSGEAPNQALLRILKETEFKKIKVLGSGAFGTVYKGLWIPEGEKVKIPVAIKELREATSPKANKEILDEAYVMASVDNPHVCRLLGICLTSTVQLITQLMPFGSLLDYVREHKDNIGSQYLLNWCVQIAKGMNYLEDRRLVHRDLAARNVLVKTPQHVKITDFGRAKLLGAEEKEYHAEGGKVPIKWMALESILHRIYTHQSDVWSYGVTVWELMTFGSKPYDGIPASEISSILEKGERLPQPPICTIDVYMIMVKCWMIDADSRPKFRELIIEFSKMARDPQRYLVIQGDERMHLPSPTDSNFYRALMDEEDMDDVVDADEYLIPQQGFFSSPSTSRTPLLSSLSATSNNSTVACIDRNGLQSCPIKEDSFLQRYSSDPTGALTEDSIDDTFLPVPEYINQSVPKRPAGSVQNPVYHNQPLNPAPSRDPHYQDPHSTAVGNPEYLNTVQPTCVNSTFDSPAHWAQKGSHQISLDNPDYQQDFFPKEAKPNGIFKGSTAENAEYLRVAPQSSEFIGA
# assay: CellTiter-Glo cell viability, Ba/F3 EGFR L858R/C797S cells
# Format: cell-based, murine
# condition.info: 72 hours, read-out: Ba/F3 EGFR mutant cell (IC50, nM) L/C
value.type: GI50 (nM)
Please give a number only; it is taken to be in nM.

As a guide, the following entries are already answered.
molecule: COc1cc(N2CCC(N3CCN(C)CC3)CC2)c(F)cc1Nc1ncc(Br)c(Nc2ccc3nccnc3c2NS(C)(=O)=O)n1
measured.number: 184
--
molecule: COc1cc(N2CCC(N3CCN(C)CC3)CC2)c(C)cc1Nc1ncc(Cl)c(Nc2cccc(OC)c2NS(C)(=O)=O)n1
measured.number: 41
--
molecule: COc1cc(N2CCC(N3CCN(C)CC3)CC2)c(C)cc1Nc1ncc(Cl)c(Nc2ccc3nccnc3c2NS(=O)(=O)C2CC2)n1
measured.number: 163

Qu. // GI50 lookup, key: COc1cc(N2CCOCC2)c(C)cc1Nc1ncc(Br)c(Nc2ccc3nccnc3c2S(C)(=O)=O)n1 [Example D1]
Ans. 1120

Qu. // GI50 lookup, key: CCc1cc(Nc2ncc(Br)c(Nc3cccc(OC)c3N(C)S(C)(=O)=O)n2)c(OC)cc1N1CCC(N2CCN(C)CC2)CC1 [Example C7]
Ans. 52

---

In this section, each of the compounds is paired with its reported GI50.
# measurement.target: Ba/F3 EGFR Del19/C797S mutants (Homo sapiens, UniProt P00533, C797S, cells depend on it, form not given)
# Sequence (P00533 with tags, fused parts or gaps DEL746-750/C797S, form open): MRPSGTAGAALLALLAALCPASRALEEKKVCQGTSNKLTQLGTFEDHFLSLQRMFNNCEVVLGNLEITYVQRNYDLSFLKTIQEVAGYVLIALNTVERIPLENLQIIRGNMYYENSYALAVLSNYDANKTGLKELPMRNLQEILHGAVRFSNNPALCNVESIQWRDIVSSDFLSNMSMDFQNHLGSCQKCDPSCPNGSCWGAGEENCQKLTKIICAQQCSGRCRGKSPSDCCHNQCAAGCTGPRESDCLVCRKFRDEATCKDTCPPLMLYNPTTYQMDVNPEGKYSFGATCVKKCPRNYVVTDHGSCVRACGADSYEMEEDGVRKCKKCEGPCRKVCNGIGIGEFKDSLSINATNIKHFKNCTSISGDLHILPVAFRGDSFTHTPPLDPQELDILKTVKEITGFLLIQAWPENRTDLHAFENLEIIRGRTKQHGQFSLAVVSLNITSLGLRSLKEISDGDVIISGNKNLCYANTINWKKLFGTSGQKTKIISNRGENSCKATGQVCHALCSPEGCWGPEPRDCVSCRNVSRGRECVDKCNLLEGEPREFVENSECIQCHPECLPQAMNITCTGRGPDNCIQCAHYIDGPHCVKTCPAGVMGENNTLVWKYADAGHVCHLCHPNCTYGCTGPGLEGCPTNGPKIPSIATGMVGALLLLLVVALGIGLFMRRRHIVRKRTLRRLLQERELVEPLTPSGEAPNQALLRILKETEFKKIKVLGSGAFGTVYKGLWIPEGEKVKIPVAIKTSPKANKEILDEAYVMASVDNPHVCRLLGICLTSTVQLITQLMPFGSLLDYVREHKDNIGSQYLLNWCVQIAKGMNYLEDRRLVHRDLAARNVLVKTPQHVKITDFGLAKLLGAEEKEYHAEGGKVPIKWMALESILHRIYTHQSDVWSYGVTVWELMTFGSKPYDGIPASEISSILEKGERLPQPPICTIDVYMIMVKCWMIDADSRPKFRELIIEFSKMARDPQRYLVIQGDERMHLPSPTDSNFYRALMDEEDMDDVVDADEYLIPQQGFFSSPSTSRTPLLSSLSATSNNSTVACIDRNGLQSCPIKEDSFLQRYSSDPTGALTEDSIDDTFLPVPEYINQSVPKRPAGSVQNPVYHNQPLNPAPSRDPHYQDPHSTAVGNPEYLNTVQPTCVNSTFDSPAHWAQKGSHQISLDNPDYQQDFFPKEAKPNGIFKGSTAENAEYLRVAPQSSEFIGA
# assay: CellTiter-Glo cell viability, Ba/F3 EGFR Del19/C797S cells
# Type: cell-based, murine
# condition.info: 72 hours, read-out: Ba/F3 EGFR mutant cell (IC50, nM) D/C
Please give a number only; it is taken to be in nM.

compound: CCCc1cc(Nc2ncc(Cl)c(Nc3ccc4nccnc4c3N(C)S(C)(=O)=O)n2)c(OC)cc1N1CCC(N2CCCC2)CC1
GI50, nM: 2
//
compound: COc1cc(C2CCNCC2)c(F)cc1Nc1ncc(Cl)c(Nc2ccc3nccnc3c2NS(C)(=O)=O)n1
GI50, nM: 342
//
compound: CCc1cc(Nc2ncc(Cl)c(Nc3cccc(OC)c3NS(C)(=O)=O)n2)c(OC)cc1N1CCC(N2CCOCC2)CC1
GI50, nM: 22

Qu. // GI50 lookup, key: COc1ccc(Nc2nc(Nc3cc(C)c(N4CCC(N(C)C)CC4)cc3OC)ncc2Cl)c(NS(C)(=O)=O)c1
Ans. 31

Qu. // GI50 lookup, key: COc1cc(N2CCC(N(C)C)CC2)c(C)cc1Nc1ncc(Br)c(Nc2ccc3nccnc3c2NS(C)(=O)=O)n1
Ans. 38

Qu. // GI50 lookup, key: CCc1cc(Nc2ncc(Cl)c(Nc3ccc4nccnc4c3N(C)S(C)(=O)=O)n2)c(OC)cc1N1CC2CCC1CN2C(C)C (stereo not shown)
Ans. 14

Qu. // GI50 lookup, key: COc1cc(N2CCC(N3CCOCC3)CC2)c(C)cc1Nc1ncc(Cl)c(Nc2ccc3nccnc3c2NS(C)(=O)=O)n1
Ans. 50

Qu. // GI50 lookup, key: COc1cc(C2CCNCC2)c(C)cc1Nc1ncc(Br)c(Nc2ccc3nccnc3c2NS(C)(=O)=O)n1
Ans. 583

Qu. // GI50 lookup, key: COc1cc(C2CCNCC2)ccc1Nc1ncc(Cl)c(Nc2ccc3nccnc3c2NC(C)=O)n1
Ans. 378

Qu. // GI50 lookup, key: CCc1cc(Nc2ncc(Br)c(Nc3ccc4nccnc4c3N(C)S(C)(=O)=O)n2)c(OC(C)C)cc1C1CCN(C)CC1
Ans. 172
